All figures here come from the supplement of paper PMC7125110.

Please go through the items and note down their self-cleavage kobs at 10000 uM GlcN6P.
B1: glmS ribozyme (parent)
chain: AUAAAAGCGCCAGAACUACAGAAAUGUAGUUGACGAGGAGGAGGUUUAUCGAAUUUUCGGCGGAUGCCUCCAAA

Variants of: B1
protocol-description: self-cleavage kobs at 10000 uM GlcN6P; higher = faster cleavage; RNA array
test-context: with glucosamine-6-phosphate
Fewer inactive variants are shown than the library holds.
One number for each entry, in s⁻¹.

Solved cases (6 shown):
[
  {
    "ordered-residues": "AUAAAAGCGCUAGAACUACAGAAAUGUAGUUGACGAGGAGGAGGUAUAUCGAAUUUUCGGCGGAUGCCUCCAAA [C11U U46A]",
    "self-cleavage kobs at 10000 uM GlcN6P [s⁻¹]": "9.01e-05"
  },
  {
    "ordered-residues": "AUAAAAGCGCCAGAACUACAGAAAUGUAGUUGACGAGGUGGAGGGUUAUCGAAUUUUCGGCGGAUGCCUCCAAA [A39U U45G]",
    "self-cleavage kobs at 10000 uM GlcN6P [s⁻¹]": 0.00711
  },
  {
    "ordered-residues": "AUAAAAGCGCCAUAACUACAGAAAUGUAGUUGACGAGGAGGAGGUUUAUGGAAUUUUCGGGGGAUGCCUCCAAA [G13U C50G C61G]",
    "self-cleavage kobs at 10000 uM GlcN6P [s⁻¹]": 0.000116
  },
  {
    "ordered-residues": "AUAAAAGCGCCCGAACUACAGAAAUGUAGUAGACGAGGAGGAGGUUUAUCGAAUUUUCGGCGGAUGCCUCCAAA [A12C U31A]",
    "self-cleavage kobs at 10000 uM GlcN6P [s⁻¹]": 0.00974
  },
  {
    "ordered-residues": "AUAAAAGCGCCAGAACUACAGAAAUGUAGUUGACCAGUAGGAGGUUUAUGGAAUUUUCGGCGGAUGCAUACAAA [G35C G38U C50G C68A C70A]",
    "self-cleavage kobs at 10000 uM GlcN6P [s⁻¹]": 0.000258
  },
  {
    "ordered-residues": "AUAAAAGCGCCAGAACUACAGAAAUGUAGUUGACGAGGAGAAGGUUUAUCGACUUUUCGGCGGAUGCCUCCAAA [G41A A53C]",
    "self-cleavage kobs at 10000 uM GlcN6P [s⁻¹]": 0.000202
  }
]

Would you be so kind as to report self-cleavage kobs at 10000 uM GlcN6P for each listed record?
1. AUAAAAGCGCCAGAAGUACAGAAAUGUAGUUGACGAGGAGGAGGUUUAUCGAAUGUUCGGCGGAUGCCUCCAAA [C16G U55G]
2. AUAAAAGCGCCAGAACUACAGAAAUGUAGUUGACGAGGAGGAGGUUUAUCGUAUUUACGGCGGAUGCCUCCAAA [A52U U57A]
3. AUAAAAGCGCCAGACCUACAGAAAUGUAGUUGACGAGGGGGAGGUUUAUCGGAUUUUCGGCGGAUGCCUCCAAA [A15C A39G A52G]
4. AUAAAAGCGCCAGCACUACAGAAAUGUAGUUGACGAGGAGGAGGUUUAUCGAAUUUUCGGCGGAUGCCUCUAAA [A14C C71U]
5. AUAAAAGCGCUAGAACUACAGAAAUGUAGUUGACGGGGAGGAGGUUUAUGGAAUUUUCGGCGGAUGCCUCCAAA [C11U A36G C50G]
6. AUAAAAGCGCCAGAACUACAGAAAUGUAGUUGACGAGGAGGAGGUUUAUCGAAUUUUCGGCGGAUGAUUUCAAA [C67A C68U C70U]
7. AUAAAAGCGCCAGUACUACAGAAAUGUAGUCGACGAGGAGGAGGUCUAUCGAAUUUUCGGCGGAUGCCUCCAAA [A14U U31C U46C]

1: 0.00368; 2: 0.00213; 3: 0.000495; 4: 0.00794; 5: 4.94e-05; 6: 6.71e-05; 7: 0.00011

Would you be so kind as to report self-cleavage kobs at 10000 uM GlcN6P for each listed record?
1. AUAAAAGCGCCAGAAGUACAGAAAUGUAGUUGACGAGGAGGAGGUUUAUCGAAUUUUCGGCGGAUGCCUCGAAA [C16G C71G]
2. AUAAAAGCGCCAGAACUACAGAAAUGUAGUUGACGAGGAAGAGGUUUAUCGAGUUUUCGGCGGAUGCCUCGAAA [G40A A53G C71G]
3. AUAAAAGCGCCACAACUACAGAAAUGUAGUUGACGAGGAGGAGGUUUAUCGAAUUUUCGGCGGAUGCCCCCAAA [G13C U69C]

[0.00014, 0.00453, "8.36e-05"]

// input: 5 variants below; output: self-cleavage kobs at 10000 uM GlcN6P for each
1. AUAAAAGCGCCAGAACUACAGAAAUGUAGUUGACGAGGAGGAGGUUUAUCGAAUUUUCGGCGGCGGCCUCCAAA [A64C U65G]
2. AUAAAAGCGCCAGAACUACAGAAAUGUAGUUGACGAGGGGGAGGAUUAUCGAAUUUUCGGCGGUUGCCUCCAAA [A39G U45A A64U]
3. AUAAAAGCGCCAGAAAUACAGAAAUGUAGUUGACGAGGAGGAGGUUUAUCGAAUUUUCGGCGGAUACCUCCAAA [C16A G66A]
4. AUAAAAGCGCCAGUACUACAGAAAUGUAGUUGACGUGGAGGAGGUUUAUCGAAUUUUCGGCGGAUGCCGCCAAA [A14U A36U U69G]
5. AUAAAAGCGCCAGAACUACAGAAAUGUAGUUGACGAGGAGGAGGUUUAUCGAAGUUUCGGCGGAUACCUCCAAA [U54G G66A]

4.42e-05
0.000499
0.00118
5.55e-05
0.0132
